All values here come from ChEMBL document CHEMBL4043190.

Species on record: Homo sapiens
Experiment: Selectivity ratio of EC50 for JAK2 (unknown origin) assessed as EPO-induced STAT5 phosphorylation to EC50 for TYK2 (unknown origin) assessed as IL-23-induced STAT3 phosphorylation
measured-property: Ratio EC50

[
  {
    "smiles-record": "OCCN1CCN(c2cc(Nc3nccc4nc(-c5c(Cl)cccc5Cl)[nH]c34)ncn2)CC1",
    "quantitative-result": 7.8
  },
  {
    "smiles-record": "Clc1cccc(Cl)c1-c1nc2ccnc(Nc3cc(N4CCOCC4)ncn3)c2[nH]1",
    "quantitative-result": 2.3
  },
  {
    "smiles-record": "Clc1cccc(Cl)c1-c1nc2ccnc(Nc3cc(N4CCCC4)ncn3)c2[nH]1",
    "quantitative-result": 1.9
  },
  {
    "smiles-record": "Cc1cc(Nc2nccc3nc(-c4c(Cl)cc(C#N)cc4Cl)[nH]c23)ncn1",
    "quantitative-result": 21
  },
  {
    "smiles-record": "CNc1cc(Nc2nccc3nc(-c4c(Cl)cc(C#N)cc4Cl)[nH]c23)ncn1",
    "quantitative-result": 8.6
  },
  {
    "smiles-record": "Clc1cccc(Cl)c1-c1nc2ccnc(Nc3cc(N4CCN(C5COC5)CC4)ncn3)c2[nH]1",
    "quantitative-result": 14
  },
  {
    "smiles-record": "CNc1cc(Nc2nccc3nc(-c4c(Cl)cccc4Cl)[nH]c23)ncn1",
    "quantitative-result": 16
  },
  {
    "smiles-record": "N#Cc1ccnc(Nc2nccc3nc(-c4c(Cl)cccc4Cl)[nH]c23)c1",
    "quantitative-result": 220
  },
  {
    "smiles-record": "N#Cc1cc(Cl)c(-c2nc3ccnc(Nc4cc(N)ncn4)c3[nH]2)c(Cl)c1",
    "quantitative-result": 3.5
  },
  {
    "smiles-record": "COc1cc(Nc2nccc3nc(-c4c(Cl)cccc4Cl)[nH]c23)ncn1",
    "quantitative-result": 1.8
  },
  {
    "smiles-record": "Cc1cc(Nc2nccc3nc(-c4c(Cl)cccc4Cl)[nH]c23)ncn1",
    "quantitative-result": 11
  },
  {
    "smiles-record": "CN(C)c1cc(Nc2nccc3nc(-c4c(Cl)cccc4Cl)[nH]c23)ncn1",
    "quantitative-result": 15
  },
  {
    "smiles-record": "OC1CCN(c2cc(Nc3nccc4nc(-c5c(Cl)cccc5Cl)[nH]c34)ncn2)CC1",
    "quantitative-result": 3.1
  },
  {
    "smiles-record": "Cc1nccc(Nc2nccc3nc(-c4c(Cl)cccc4Cl)[nH]c23)n1",
    "quantitative-result": 1.1
  }
]
